Tested on: A549/ATCC NSCLC
Test: NCI-60 one-dose screen, 48 h (100 = growth as untreated, 0 = no growth, -100 = all killed)
Conditions: 10 µM unless noted
About 83,000 compounds went through this panel and 20% of them were active in at least one assay; those are over-represented in the sample as a whole.
Parameter growth: see the listing below.
Output spec: scalar in %, unitless text.

C=C1C(=O)O[C@H]2[C@H]1CC/C(COC(=O)c1cccc3ccccc13)=C\CC[C@@]1(C)O[C@@H]21 | -55

Exercise: // growth lookup, key: COc1ccc(C(=O)NC(=O)Nc2ccc3c(c2)NC(=O)/C3=C\c2[nH]c(C)c(C(=O)O)c2C)cc1
Solution: 98

Exercise: What about Cc1ncc(CO)c(C(=O)O)c1O ?
Solution: 110

Exercise: # repeat for C#CCn1c(-c2cc(OC)c(OC)cc2Br)nc(-c2ccccc2)c1-c1ccccc1
Solution: 31.2

Exercise: Same thing, different molecule: S=c1n(CNc2ccc(Cl)nn2)nc(-c2cc(Cl)cc(Cl)c2Cl)n1/N=C/c1ccc(Cl)cc1
Solution: 138

Exercise: Again, but for CCOc1ccccc1C(=O)N1CCN(c2cc(Cl)cc(Cl)c2)CC1
Solution: 19.3

Exercise: Follow-up entry: Cc1cccc[n+]1CCC[n+]1ccccc1C
Solution: 95.7

Data credit: PubChem BioAssay (NCI)
